Values compiled from patent US3956492A.

system: male NMRI-mice; test: Anticonvulsive activity, protective effect against the maximum electro-shock-spasm; format: in vivo; conditions: Mus musculus, po, 2.5 h; p.o.; after 150 min.; 50% protected against tonic extensor component; read-out: ED50 after 150 min.
Recorded ED50, one value per entry.
MEASURED ENDPOINT: ED50 (mg/kg)

>>> assay_value("CCNC=C1N=C(c2ccccc2Cl)c2cc(Br)ccc2NC1=O")
8.8
>>> assay_value("NC=C1N=C(c2ccccc2Cl)c2cc(Br)ccc2NC1=O")
14.5
>>> assay_value("CN1C(=O)C(=CN)N=C(c2ccccc2Cl)c2cc(I)ccc21")
30
>>> assay_value("CN1C(=O)C(=CN)N=C(c2ccccc2Cl)c2cc(Br)ccc21")
17
>>> assay_value("CN1C(=O)C(=CN2CCOCC2)N=C(c2ccccc2Cl)c2cc(Br)ccc21")
31
>>> assay_value("CN1C(=O)C(=CN2CCOCC2)N=C(c2ccccc2Cl)c2cc(Cl)ccc21")
18
>>> assay_value("CCNC=C1N=C(c2ccccc2Cl)c2cc(Cl)ccc2N(C)C1=O")
28
>>> assay_value("NC=C1N=C(c2ccccc2Cl)c2cc(Cl)ccc2NC1=O")
28

* * *

Listed below: ED50 values for each entry.
tested on: female NMRI-mice; test: Muscle-relaxing and sedative activity by the method of Young and Lewis (holding ability in slowly rotating inclined wire-mesh cylinders); assay type: in vivo; conditions: Mus musculus, po; after 30-60 min.; 50% of animals fall out of cylinders; read-out: ED50 after 30-60 min.
MEASURED ENDPOINT: ED50 (mg/kg)

>>> assay_value("NC=C1N=C(c2ccccc2Cl)c2cc(Cl)ccc2NC1=O")
13
>>> assay_value("CCNC=C1N=C(c2ccccc2Cl)c2cc(Br)ccc2NC1=O")
2.4
>>> assay_value("NC=C1N=C(c2ccccc2Cl)c2cc(Br)ccc2NC1=O")
0.5
>>> assay_value("CN1C(=O)C(=CN2CCOCC2)N=C(c2ccccc2Cl)c2cc(Br)ccc21")
33
>>> assay_value("CN1C(=O)C(=CN)N=C(c2ccccc2Cl)c2cc(Br)ccc21")
7
>>> assay_value("CN1C(=O)C(=CN)N=C(c2ccccc2Cl)c2cc(I)ccc21")
2.6
>>> assay_value("CN1C(=O)C(=CN2CCOCC2)N=C(c2ccccc2Cl)c2cc(Cl)ccc21")
14
>>> assay_value("CCNC=C1N=C(c2ccccc2Cl)c2cc(Cl)ccc2N(C)C1=O")
2

* * *

system: female NMRI-mice; experiment: Muscle-relaxing and sedative activity by the method of Young and Lewis (holding ability in slowly rotating inclined wire-mesh cylinders); assay type: in vivo; conditions: Mus musculus, po; after 90-120 min.; 50% of animals fall out of cylinders; read-out: ED50 after 90-120 min.
Measured ED50 accompanies every entry in the list below.
MEASURED ENDPOINT: ED50 (mg/kg)

>>> assay_value("CN1C(=O)C(=CN)N=C(c2ccccc2Cl)c2cc(Br)ccc21")
7
>>> assay_value("CN1C(=O)C(=CN)N=C(c2ccccc2Cl)c2cc(I)ccc21")
1.5
>>> assay_value("CN1C(=O)C(=CN2CCOCC2)N=C(c2ccccc2Cl)c2cc(Cl)ccc21")
5
>>> assay_value("CN1C(=O)C(=CN2CCOCC2)N=C(c2ccccc2Cl)c2cc(Br)ccc21")
26
>>> assay_value("NC=C1N=C(c2ccccc2Cl)c2cc(Br)ccc2NC1=O")
0.7
>>> assay_value("NC=C1N=C(c2ccccc2Cl)c2cc(Cl)ccc2NC1=O")
3
>>> assay_value("CCNC=C1N=C(c2ccccc2Cl)c2cc(Cl)ccc2N(C)C1=O")
3
>>> assay_value("CCNC=C1N=C(c2ccccc2Cl)c2cc(Br)ccc2NC1=O")
1.25

* * *

system: female NMRI-mice; test: Muscle-relaxing and sedative activity by the method of Young and Lewis (holding ability in slowly rotating inclined wire-mesh cylinders); assay type: in vivo; details: Mus musculus, po; after 210-240 min.; 50% of animals fall out of cylinders; read-out: ED50 after 210-240 min.
Listed here are compounds together with their documented ED50.
MEASURED ENDPOINT: ED50 (mg/kg)

>>> assay_value("NC=C1N=C(c2ccccc2Cl)c2cc(Cl)ccc2NC1=O")
10
>>> assay_value("CN1C(=O)C(=CN2CCOCC2)N=C(c2ccccc2Cl)c2cc(Br)ccc21")
16
>>> assay_value("NC=C1N=C(c2ccccc2Cl)c2cc(Br)ccc2NC1=O")
0.7
>>> assay_value("CCNC=C1N=C(c2ccccc2Cl)c2cc(Cl)ccc2N(C)C1=O")
11
>>> assay_value("CN1C(=O)C(=CN2CCOCC2)N=C(c2ccccc2Cl)c2cc(Cl)ccc21")
14
>>> assay_value("CN1C(=O)C(=CN)N=C(c2ccccc2Cl)c2cc(I)ccc21")
2.7
>>> assay_value("CN1C(=O)C(=CN)N=C(c2ccccc2Cl)c2cc(Br)ccc21")
5
>>> assay_value("CCNC=C1N=C(c2ccccc2Cl)c2cc(Br)ccc2NC1=O")
2.1
